assay: soluble on expression in E. coli; label from the status in PepcDB or PDB records
measured_quantity: soluble on expression in E. coli

Ask: Entry under review: "YMYKKYDILKGDKSERVLDRRFITNLCMNGVPMGLQYSITAIGSTILQAAVNTLGSTYVAAMTAGSKMFNFTCCPFDALGSTMATYAGQNVGAAKIKRLGQGVR" . Reported soluble on expression in E. coli?
Result: not soluble

Ask: Would you kindly repeat that for "MAHHHHHHMSGAGRKHRAKHLTQQYLDASGWVGPKEGERLAICMESPHGQHVRVLLLVHPNSAPASSSTEAPAPDGSSSSDAPHGAKESEAGVSASPPSAAPLLEVEQVVHLPRKFHKVIWLSIKDVVVIADGTVSFKPSPEQVESFLKDPRNKGWRERVATAQHRAEDQRAALQRMPHYAATAQTTTSVLTGPQVRSGVRATANGTSEQDSEGSEGEADDMRNPNWRNIKHQQHFFYGLGDDSDEIEEEEDA" ?
Result: not soluble

====

assay: soluble on expression in E. coli; label from the status in PepcDB or PDB records
measured_quantity: soluble on expression in E. coli

Some sequences with recorded soluble on expression in E. coli:
Ask: Given the sequence "MPNYKLLYFDARALAEPIRIMFAMLNVPYEDYRVSVEEWSKLKPTTPFGQLPILQVDGEQFGQSMSITRYLARKFGLAGKTAEEEAYADSIVDQYRDFIFFFRQFTSSVFYGSDADHINKVRFEVVEPARDDFLAIINKFLAKSKSGFLVGDSLTWADIVIADNLTSLLKNGFLDFNKEKKLEEFYNKIHSIPEIKNYVATRKDSIV" , what is its reported soluble on expression in E. coli?
Result: not soluble

Ask: Next sequence up: "MKKLIVASLSLTFMLGGCASMNKEGVGTITGGVVGGLLGSQFGGGSGKVAAAGAGALLGAYLGGQIGKTMDKVDRLEMQRALETAPTGKAVAWSNPDTGYRYTVQPTRTYYNAQQPCREYITKAMIGGKTQQIYGKACRQADGSWRVVNLEHHHHHH"
Result: not soluble

Ask: Continue with "MSNGAWTDQENDLIVADYFAMLADDVSGRPYNKAEHRRGLLPLLNDRSEGSVEFKHQNISAVLKGLGEDWIPGYKPAFNFQMTLVDAVARWLALNPAWLGRHSGTRAPTGLAEVRPIWIGPPPTLSNQPPPQELEQMLHIARKFDVAARDERNRALGRAGEERVLAHERATLKSAGRDDLARNVRWVSEEDGDGAGYDIASFALDGSPRLIEVKTTNGWERTPFHISRNELAVAEARRSEWSLFRLWNFAREPKAFELHPPLGAHVSLTATTFQASLHLEHHHHHH"
Result: not soluble

Ask: // same read-out, input: "MKPENKIPVLTRLSDEMTAVVNFQQPGLPPWPADGDIETQRQYYLLERRFWNADAPSMTTRTCAVPTPYGDVTTRLYSPQPTSQATLYYLHGGGFILGNLDTHDRIMRLLARYTGCTVIGIDYSLSPQARYPQAIEETVAVCSYFSQHADEYSLNVEKIGFAGDSAGAMLALASALWLRDKHIRCGNVIAILLWYGLYGLQDSVSRRLFGGAWDGLTREDLDMYEKAYLRNDEDRESPWYCLFNNDLTRDVPPCFIASAEFDPLIDDSRLLHQTLQAHQQPCEYKMYPGTLHAFLHYSRMMTIADDALQDGARFFMARMKTPR"
Result: not soluble

Next:
Ask: Any idea what its soluble on expression in E. coli is? The sequence is "MFAVDPQMNQTVNSPKGQLLLRTLAMPADTNANGDIFGGWIMSQLDLAGGILAKEISCGRIVTVSVSSITFKKPVKVGDVVCCYGECTKIGRTSMSINLEVWVKPVKEEGVGERFQVCEATFNYVAIDANGRPRAISLSNGSQKSSLEHHHHHH"
Result: not soluble

Ask: Input "SNAMANFEDFLTLDLRIGTVTHAEEFKEARVPAIRLEIDFGELGMKQSSAQITKRYNPEDLIGQQIVAVVNFPPKRVAGFKSEVLVLGGVPEAGDVVLLQPNMELPNGTKIS"
Result: soluble

Ask: What do we get for "MGKLLTMAMPKGRIFEEAAGLLRQAGYRLPEEFEDSRKLIIDVPEENLRFILAKPMDVTTYVEHGVADVGIAGKDVMLEEERDVYEVLDLNISKCHLAVAGLPNTDWSGVAPRIATKYPNVASSYFREQGEQVEIIKLNGSIELAPLIGLADRIVDIVSTGQTLKENGLVETEHICDITSRFIVNPVSYRMKDDVIDEMASRLSLVVEGETAKLEHHHHHH" ?
Result: soluble

====

assay: soluble on expression in E. coli; label from the status in PepcDB or PDB records
measured_quantity: soluble on expression in E. coli

The cases that follow already have their soluble on expression in E. coli on record.
Ask: Need soluble on expression in E. coli, item "MACVDISPLSYESVKSVVKYLSLKKREQINLSIPAYHKTAKLAPFKLENVGLSDLYIEVNDRTWTLSETDIIGCTLVLYRSNGYNFQHIISITPEVAFQKLISEYLRNGTRIKKFHLYALPSLLKNVELHVSELKIDGCDYETFAKFRKFIDHNQKILKEIGFVVRQNTLWMFDEQLVKNSKEIYLQFPYYNPVPLDDMLLRLKNNHVHIIYLGFPIEKLQELAMNWIDTKKPIGTSLFLVVEHYTYVIDVFEHLTKYSKAIPSRLTDLGTSFFSHCVTMHIDESSELVLFGGPMVIEWKPFKWTLRMTIMKRGSTISK"
Result: not soluble

Ask: And what about the sequence "MHIDNVVFMKKVLDASAFINGYVPEGRENYTVRSVTEEIRDFRSMMILEDALREGRLKITEPDPESMKVVEDAISESGDIMRLSPTDMEVIGLAVSLRGKDDVTVITDDYTIQNTLKILGIGFRSVLTSGIRDTYSWRRVCTGCRRVYPLDYEFEECEICGSRIVRKRHRNLEHHHHHH" ?
Result: soluble

Ask: Similarly, "MPSTADTVEVDFITPRHLAGGGDPAWITVPLHRACGWSHGHDPLMPRALLSSPDQKALLRLEPDPDGQWWTLNHTAESGRPAWYASFGARTPVELIAAFTDALTAPAPPTDAPCDPFEPLRQIAWSAPAVGADGLVSPDGTAYVQRQGSADGPGAWFVTVTLGPRPVWQARFDAHTPEHLVAAFTTALADPKPALRTDSGRSLPTRNPNVVTRKTTDVLAVDIAGALEERVQTLTTRHPLPPANPMPPTPPPTRHGRSRLEHHHHHH" ?
Result: soluble

Ask: Another sequence: "MAPWIGGKRNLARRICAILDRSPCLTYAEPFVGMAGIFLRRSSRPRAEVINDRGRDVANLFRILQRHYPQFLDTLRFQLTTRAEFERLGATDPDTLTDLERAARFLYLQRTAFGGKVSGRNFGVSSHRPGRFNLTTLEPMLEDLHSRLAGVIVECLDWADFLARYDRPETLFYLDPPYWGSETDYGRGLFQREDFGLMAERLAKLQGRFLLSINDVPQIRAIFGRFRITEVTTTYSISGSAKGNGTARPELLVSNWDIGEEG"
Result: not soluble

Others:
Ask: # soluble on expression in E. coli lookup, item "MSLSTVTMILGQSGTGKSTSLRNLDPSQTLLIQAIKKPLPFKSGNWKPANKENPAGSIFVCDSAATIVGAMKRTKRPVIVIDDFQYVMANEFMRRSAEKGFDKFTEIGRNAWDILVEAARLPDEVRVYVLSHVETTDDGRTKIKTIGRMLDEKITLEGMVSIVLKTVVQDGQHFFATRNNGSDTVKTPMGMFDADLIENDLAAVDTAIYQYYGLTEAEGHHHHHH"
Result: not soluble

Ask: Cool, now "LKIKMPDDIFVKKELILKDVIKGQIGYMYLPSMSSKNGSINNDLKIIGDYINTLEKHKALIIDIRGNLGGSDRYWQGIVSKLIKNDVKINGYRIYRNNNEIVKKYTNARNIKLNPVENLPASVKENAPKEIIKDFNDFEDTSYTIKSTDDSKFKGNIYLLVDRKIYSSSESFAMFCKENKFATLVGETTGGDGGCIDPVLFNLKNSGLIVRMASCMYLNKNGICDEEFKTIPEFKVKDCKRTADFKDDNCIRKALELENINY"
Result: not soluble

====

test: soluble on expression in E. coli; label from the status in PepcDB or PDB records
measured_quantity: soluble on expression in E. coli

Ask: Look up soluble on expression in E. coli for this sequence: "MSLAFVPHVPRHSRGDNPPSASTASPAVLTLTGERTIPDLDIENYWFRRHQVVYQRLAPRCTARDVLEAGCGEGYGADLIACVARQVIAVDYDETAVAHVRSRYPRVEVMQANLAELPLPDASVDVVVNFQVIEHLWDQARFVRECARVLRGSGLLMVSTPNRITFSPGRDTPINPFHTRELNADELTSLLIDAGFVDVAMCGLFHGPRLRDMDARHGGSIIDAQIMRAVAGEGHHHHHH"
Result: not soluble

Ask: // query: "MGSDKIHHHHHHMRLTIHHTTRYRFDEPVSFGLQQLRKTPKTNTNQQVVEWQTRIIGGQKEVSFDDHHHNVTELISFEPGVTELELVSEGVVELTDTHGVVGRHRGPSPLWLYARPTVLTEARAGVRELIRDLDDSNPVDMLHQLSARIREAITYQIGVSELGWSAEDAIQSAHGVCQDHAHVFIACARKLGLPARYVSGYLMLDDRTTQDAMHAWAEAHVEGLGWVGFDVSNGISPDARYVRVATGLDYSDAAPVSGTRIGGAGEALDVQIEVAQQ"
Result: not soluble

Data provenance: the DeepSol protein solubility set
